Test system: Acinetobacter pittii
Test: Antibacterial activity against Acinetobacter genomosp. 3 isolate 243 by Etest method
Format: functional
Residues, ends and D or L forms follow the SMILES beside them. *: point of attachment. βNA = c1ccc2cc(N*)ccc2c1
MIC values by entry
Measured Quantity: MIC

> print(dat)
                                   compound  measured.quantity  observed.result
1  N#CC(C#N)=NNc1cccc(Cl)c1 [CARBONYL CYANIDE M-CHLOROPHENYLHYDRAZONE]                MIC           400 µM
2  Cl.Cl.N=C(N)NCCC[C@H](NC(=O)[C@@H](N)Cc1ccccc1)C(=O)Nc1ccc2ccccc2c1 (H-Phe-Arg-βNA)                MIC      > 400 µg/mL
3  CC(=O)OCC1=C(C(=O)O)N2C(=O)[C@@H](NC(=O)Cc3cccs3)[C@H]2SC1                MIC      > 256 µg/mL

* * *

Test system: Acinetobacter pittii
Experiment: Antibacterial activity against Acinetobacter genomosp. 3 isolate 52 by Etest method
Assay type: functional
Measured Quantity: MIC

> print(dat)
                                   compound   experimental.system  measured.quantity  observed.result
1  CC(=O)OCC1=C(C(=O)O)N2C(=O)[C@@H](NC(=O)Cc3cccs3)[C@H]2SC1  Acinetobacter pittii                MIC      > 256 µg/mL
2  N#CC(C#N)=NNc1cccc(Cl)c1 [CARBONYL CYANIDE M-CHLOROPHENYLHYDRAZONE]  Acinetobacter pittii                MIC         > 400 µM
3  CO[C@@]1(NC(=O)Cc2cccs2)C(=O)N2C(C(=O)O)=C(COC(N)=O)CS[C@@H]21  Acinetobacter pittii                MIC      > 256 µg/mL
